Entry source: paper PMC3004914

Biological target: rNav1.2 sodium channels (HEK-293 cells) (Rattus norvegicus, UniProt P04775)
Sequence (P04775 whole entry): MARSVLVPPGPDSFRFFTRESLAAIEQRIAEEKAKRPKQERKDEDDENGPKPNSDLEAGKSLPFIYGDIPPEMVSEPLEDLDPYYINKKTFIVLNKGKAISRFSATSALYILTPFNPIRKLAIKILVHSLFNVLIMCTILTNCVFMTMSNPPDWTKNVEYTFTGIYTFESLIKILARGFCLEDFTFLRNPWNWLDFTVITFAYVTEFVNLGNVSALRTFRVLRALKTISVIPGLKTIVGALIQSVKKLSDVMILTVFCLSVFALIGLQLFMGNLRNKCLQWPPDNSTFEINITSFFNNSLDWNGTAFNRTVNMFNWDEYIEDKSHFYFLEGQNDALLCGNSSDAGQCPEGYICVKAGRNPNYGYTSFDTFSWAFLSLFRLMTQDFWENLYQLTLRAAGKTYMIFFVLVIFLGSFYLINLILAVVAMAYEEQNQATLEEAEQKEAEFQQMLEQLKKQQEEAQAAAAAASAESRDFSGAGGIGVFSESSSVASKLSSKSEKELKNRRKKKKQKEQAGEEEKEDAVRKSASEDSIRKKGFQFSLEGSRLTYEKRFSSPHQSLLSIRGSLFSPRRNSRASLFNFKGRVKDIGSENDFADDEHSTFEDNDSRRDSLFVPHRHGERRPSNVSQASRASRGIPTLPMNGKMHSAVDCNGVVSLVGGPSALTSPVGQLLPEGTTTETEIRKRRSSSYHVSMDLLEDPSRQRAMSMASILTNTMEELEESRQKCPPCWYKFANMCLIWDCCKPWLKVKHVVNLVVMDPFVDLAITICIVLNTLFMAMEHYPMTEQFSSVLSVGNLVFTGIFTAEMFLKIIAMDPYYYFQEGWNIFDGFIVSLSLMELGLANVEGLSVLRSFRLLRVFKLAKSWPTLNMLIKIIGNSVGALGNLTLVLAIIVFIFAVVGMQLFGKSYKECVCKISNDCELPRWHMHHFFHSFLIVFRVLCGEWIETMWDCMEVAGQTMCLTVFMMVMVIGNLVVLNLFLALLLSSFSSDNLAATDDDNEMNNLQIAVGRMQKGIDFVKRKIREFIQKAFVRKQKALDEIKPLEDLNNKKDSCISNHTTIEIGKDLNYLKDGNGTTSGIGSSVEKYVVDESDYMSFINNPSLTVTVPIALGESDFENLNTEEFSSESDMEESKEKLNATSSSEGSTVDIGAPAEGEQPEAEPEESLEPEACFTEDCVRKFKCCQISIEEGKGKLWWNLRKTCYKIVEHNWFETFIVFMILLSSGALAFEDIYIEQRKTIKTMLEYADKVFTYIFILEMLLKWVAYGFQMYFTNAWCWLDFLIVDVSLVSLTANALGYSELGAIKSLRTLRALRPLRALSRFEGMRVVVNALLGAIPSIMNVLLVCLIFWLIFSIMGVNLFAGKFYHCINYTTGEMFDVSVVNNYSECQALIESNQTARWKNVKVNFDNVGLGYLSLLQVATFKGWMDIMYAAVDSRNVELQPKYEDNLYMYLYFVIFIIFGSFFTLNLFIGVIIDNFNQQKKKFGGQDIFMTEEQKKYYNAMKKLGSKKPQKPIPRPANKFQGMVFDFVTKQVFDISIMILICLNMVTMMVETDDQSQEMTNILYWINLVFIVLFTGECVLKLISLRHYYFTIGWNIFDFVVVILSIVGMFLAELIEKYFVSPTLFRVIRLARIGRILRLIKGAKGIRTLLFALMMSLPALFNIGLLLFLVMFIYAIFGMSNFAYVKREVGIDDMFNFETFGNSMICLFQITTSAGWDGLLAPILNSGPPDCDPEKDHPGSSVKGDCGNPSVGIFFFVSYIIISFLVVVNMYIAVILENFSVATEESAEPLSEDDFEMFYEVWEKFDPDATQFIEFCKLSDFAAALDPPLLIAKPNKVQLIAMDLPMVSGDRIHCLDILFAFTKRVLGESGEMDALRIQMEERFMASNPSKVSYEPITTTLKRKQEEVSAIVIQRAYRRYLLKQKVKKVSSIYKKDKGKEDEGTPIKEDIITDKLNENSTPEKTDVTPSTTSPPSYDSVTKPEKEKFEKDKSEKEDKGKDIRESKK
Experiment: steady-state inactivation protocol (availability curves), QPatch automated patch-clamp
Assay type: cell-based
Conditions: arithmetic mean; 300 µM; read-out: Ki-ΔV1/2 arith
pKi: −log10 of the molar value.
Please mark met if the recorded pKi is equal to or greater than 4, and not met if it falls below.

Q) Could you tell me if the measured pKi of O=C1NC(=O)C(c2ccccc2)(c2ccccc2)N1 reaches 4 or more?
A) not met

Q) Could you tell me if the measured pKi of NC(=O)N1c2ccccc2C=Cc2ccccc21 [CBZ, Carbamazepine] reaches 4 or more?
A) met

Q) Could you tell me if the measured pKi of Nc1nnc(-c2cccc(Cl)c2Cl)c(N)n1 reaches 4 or more?
A) met

Q) Could you tell me if the measured pKi of O=C(NCC1CCCCN1)c1cc(OCC(F)(F)F)ccc1OCC(F)(F)F (stereo not drawn) [FLC, Flecainide] reaches 4 or more?
A) met

----------
For each entry below, report its Ki value.
Target: rNav1.2 sodium channels (HEK-293 cells) (Rattus norvegicus, UniProt P04775)
Experiment: steady-state inactivation protocol (availability curves), QPatch automated patch-clamp
Assay type: cell-based
Details: arithmetic mean; 100 µM; read-out: Ki-ΔV1/2 arith
State the answer as a number, implicitly in µM.

Q) Give the reported value of Ki for this record: Nc1c(Br)cc(Br)cc1CN[C@H]1CC[C@H](O)CC1
A) 12.8

Q) Give the reported value of Ki for this record: CN(C)CCC=C1c2ccccc2CCc2ccccc21
A) 1.87

Q) Give the reported value of Ki for this record: CN1CCN2c3ncccc3Cc3ccccc3C2C1 (centres unmarked)
A) 5.65

Q) Give the reported value of Ki for this record: CC(NC(C)(C)C)C(=O)c1cccc(Cl)c1 (centres unmarked)
A) 29.1

Q) Give the reported value of Ki for this record: Cc1ccc(C(=O)C(C)CN2CCCCC2)cc1 (centres unmarked)
A) 43.2

----------
For each entry below, report its inhibition at 100 µM value.
Target: rNav1.2 sodium channels (HEK-293 cells) (Rattus norvegicus, UniProt P04775)
Test: 5 Hz train protocol, QPatch automated patch-clamp
Assay type: cell-based
Settings: HEK293; 100 μM; −90 mV holding potential, 5 Hz train; read-out: Inh (inhibited fraction)
State the answer as a number, implicitly in %.

Q) Give the reported value of inhibition at 100 µM for this record: CNCCC(Oc1ccccc1OC)c1ccccc1 (centres unmarked)
A) 57

Q) Give the reported value of inhibition at 100 µM for this record: O=C(NCCN1CCOCC1)c1ccc(Cl)cc1 [MCL, Moclobemide]
A) 9

Q) Give the reported value of inhibition at 100 µM for this record: COc1ccccc1OCC(O)CN1CCN(CC(=O)Nc2c(C)cccc2C)CC1 (centres unmarked)
A) 16

Q) Give the reported value of inhibition at 100 µM for this record: CNC1(C)C2CCC(C2)C1(C)C (centres unmarked)
A) 5

Q) Give the reported value of inhibition at 100 µM for this record: O=C(CCNNC(=O)c1ccncc1)NCc1ccccc1 [NIA, Nialamide]
A) 3

----------
Molecular target: rNav1.2 sodium channels (HEK-293 cells) (Rattus norvegicus, UniProt P04775)
Experiment: steady-state inactivation protocol (availability curves), QPatch automated patch-clamp
Type: cell-based
Details: Ki-ΔV1/2 arith, arithmetic mean; 100 µM
quantity-measured: pKi
Please report pKi as the negative decimal logarithm of the molar concentration, giving only the number.

Q) Give the reported value of pKi for this record: CNCCC(Oc1ccccc1OC)c1ccccc1 (centres unmarked)
A) 4.71

Q) Give the reported value of pKi for this record: COc1ccc(C(CN(C)C)C2(O)CCCCC2)cc1 (centres unmarked)
A) 4.12

----------
Biological target: rNav1.2 sodium channels (HEK-293 cells) (Rattus norvegicus, UniProt P04775)
Assay: steady-state inactivation protocol (availability curves), QPatch automated patch-clamp
Type: cell-based
Details: arithmetic mean; 100 µM; read-out: Ki-Kapp arith
For each entry below, report its Ki value.
Please don't drop the unit; write it after the number.

Q) Look up and report Ki, with rNav1.2 sodium channels (HEK-293 cells) (Rattus norvegicus, UniProt P04775) as system, for Nc1c(Br)cc(Br)cc1CN[C@H]1CC[C@H](O)CC1
A) 18.6 µM

Q) Look up and report Ki, with rNav1.2 sodium channels (HEK-293 cells) (Rattus norvegicus, UniProt P04775) as system, for Cc1ccc(C(=O)C(C)CN2CCCCC2)cc1 (stereo not shown)
A) 24.3 µM

Q) Look up and report Ki, with rNav1.2 sodium channels (HEK-293 cells) (Rattus norvegicus, UniProt P04775) as system, for CCCCN1CCCCC1C(=O)Nc1c(C)cccc1C (stereo not shown)
A) 8.21 µM

Q) Look up and report Ki, with rNav1.2 sodium channels (HEK-293 cells) (Rattus norvegicus, UniProt P04775) as system, for C[Si](C)(Cc1ccc(F)cc1)CN1CCCCC1
A) 7.08 µM

----------
Molecular target: rNav1.2 sodium channels (HEK-293 cells) (Rattus norvegicus)
Test: 5 Hz train protocol, QPatch automated patch-clamp
Format: cell-based
Conditions: HEK293; calculated from Inh at single concentration 100 μM; −90 mV, 5 Hz train; read-out: IC50
Categorize each record by its potency estimated from few doses using label 0 = under 100 µM, label 1 = from 100 µM up to 600 µM, label 2 = 600 µM and over

Q) Which class does Nc1c(Br)cc(Br)cc1CN[C@H]1CC[C@H](O)CC1 fall in?
A) label 0

Q) Which class does CN1CCN2c3ncccc3Cc3ccccc3C2C1 (stereo not drawn) fall in?
A) label 1

Q) Which class does CCCCN1CCCCC1C(=O)Nc1c(C)cccc1C (stereo not drawn) fall in?
A) label 0

Q) Which class does Cc1ccc(C(=O)C(C)CN2CCCCC2)cc1 (stereo not drawn) fall in?
A) label 1

Q) Which class does O=C(CCNNC(=O)c1ccncc1)NCc1ccccc1 [NIA, Nialamide] fall in?
A) label 2

Q) Which class does CNCCC(Oc1ccccc1OC)c1ccccc1 (stereo not drawn) fall in?
A) label 0

Q) Which class does COc1ccccc1OCC(O)CN1CCN(CC(=O)Nc2c(C)cccc2C)CC1 (stereo not drawn) fall in?
A) label 1

Q) Which class does CC12CC3CC(C)(C1)CC(N)(C3)C2 [MEM, Memantine] fall in?
A) label 1

Q) Which class does O=C(NCCN1CCOCC1)c1ccc(Cl)cc1 [MCL, Moclobemide] fall in?
A) label 2

Q) Which class does O=C(O)Cc1ccccc1Nc1c(Cl)cccc1Cl fall in?
A) label 1

Q) Which class does CNC1(C)C2CCC(C2)C1(C)C (stereo not drawn) fall in?
A) label 2

Q) Which class does CC(NC(C)(C)C)C(=O)c1cccc(Cl)c1 (stereo not drawn) fall in?
A) label 1

----------
Biological target: rNav1.2 sodium channels (HEK-293 cells) (Rattus norvegicus)
Test: steady-state inactivation protocol (availability curves), QPatch automated patch-clamp
Assay type: cell-based
Conditions: 300 μM
quantity-measured: ΔV1/2 (shift of availability curve) (mV)
State the answer as a number, implicitly in mV.

Q) Give the reported value of ΔV1/2 (shift of availability curve) for this record: NC(=O)N1c2ccccc2C=Cc2ccccc21 [CBZ, Carbamazepine]
A) −11.4

Q) Give the reported value of ΔV1/2 (shift of availability curve) for this record: O=C1NC(=O)C(c2ccccc2)(c2ccccc2)N1
A) −4.93

Q) Give the reported value of ΔV1/2 (shift of availability curve) for this record: Cc1cccc(C)c1OCC(C)N (centres unmarked)
A) −10.3

Q) Give the reported value of ΔV1/2 (shift of availability curve) for this record: Nc1nnc(-c2cccc(Cl)c2Cl)c(N)n1
A) −10.3

Q) Give the reported value of ΔV1/2 (shift of availability curve) for this record: COc1ccccc1OCC(O)CN1CCN(CC(=O)Nc2c(C)cccc2C)CC1 (centres unmarked)
A) −5.52

----------
Target: rNav1.2 sodium channels (HEK-293 cells) (Rattus norvegicus)
Experiment: 5 Hz train protocol, QPatch automated patch-clamp
Assay type: cell-based
Conditions: 100 μM; 5 Hz train
quantity-measured: UD (use-dependence of the inhibition)
Lab note: record just the number, no unit beside it.

Q) Give the reported value of UD (use-dependence of the inhibition) for this record: CN1CCN2c3ncccc3Cc3ccccc3C2C1 (centres unmarked)
A) 1.14

Q) Give the reported value of UD (use-dependence of the inhibition) for this record: CNCCC(Oc1ccccc1OC)c1ccccc1 (centres unmarked)
A) 1.33

Q) Give the reported value of UD (use-dependence of the inhibition) for this record: Cc1ccc(C(=O)C(C)CN2CCCCC2)cc1 (centres unmarked)
A) 1.14

Q) Give the reported value of UD (use-dependence of the inhibition) for this record: CC(NC(C)(C)C)C(=O)c1cccc(Cl)c1 (centres unmarked)
A) 1.04

Q) Give the reported value of UD (use-dependence of the inhibition) for this record: C[Si](C)(Cc1ccc(F)cc1)CN1CCCCC1
A) 1.16

Q) Give the reported value of UD (use-dependence of the inhibition) for this record: O=C(O)Cc1ccccc1Nc1c(Cl)cccc1Cl
A) 1.01

Q) Give the reported value of UD (use-dependence of the inhibition) for this record: CC12CC3CC(C)(C1)CC(N)(C3)C2 [MEM, Memantine]
A) 0.99

Q) Give the reported value of UD (use-dependence of the inhibition) for this record: CCCCN1CCCCC1C(=O)Nc1c(C)cccc1C (centres unmarked)
A) 1.62

Q) Give the reported value of UD (use-dependence of the inhibition) for this record: COc1ccc(C(CN(C)C)C2(O)CCCCC2)cc1 (centres unmarked)
A) 1.05

Q) Give the reported value of UD (use-dependence of the inhibition) for this record: Nc1c(Br)cc(Br)cc1CN[C@H]1CC[C@H](O)CC1
A) 1.24

Q) Give the reported value of UD (use-dependence of the inhibition) for this record: COc1ccccc1OCC(O)CN1CCN(CC(=O)Nc2c(C)cccc2C)CC1 (centres unmarked)
A) 1.21
